experiment: folding stability dG unfold (combined trypsin and chymotrypsin); higher = more stable
Classification field: 1.0 = folding stability dG unfold at or over 3 kcal/mol; 0.0 = folding stability dG unfold under 3 kcal/mol.

Study these solved cases before continuing.
SAKKAEEIAEKVEKTIKEAAKEKGYDVNIKVKATKGKDGKVTVYIDFDSPENAKEFIEKLPKSVNVVIASAG [r14_491_TrMRF] ... 0.0
SAGMDIYTETVVPLRVETDEEEIEEIIEKAKEEAEKKGYKPVEIPVETEPSPEGKTLVTIPVKLLKKAPSAG [r14_109_JUSTAS] ... 0.0
SAGGSAGGSAIGLKDAVPGIENVAKALGAKAKAELKVLPDGKPYLVAKLYKDGKPLGELKVDSAGGSAGGSA [r18_369_TrMRF] ... 0.0
SSLEIPPEVLAEIKKAALEGDDEKVKELLKELGFTKVEIKYEKLDGKVKLTIKVEHPEGPATITFSDELLSA [r9_783_JUSTAS] ... 1.0

[in] In plain terms: is recorded folding stability dG unfold at least 3 kcal/mol for SAMKIIKINGKEVLLVKNENGEILIFVKNKKTNKYYLVKIEIKDGKIKIVEVKPIKTYSLEELLKEELLSAG [r14_384_TrROS_Hall] ?
[out] 1.0

[in] In plain terms: is recorded folding stability dG unfold at least 3 kcal/mol for SAGGSNPLLDELKDKPFRLPNIRDPGNGRDFPGVPIKIKEAEPPKDDGKISIKVEHPDGPYEMQIDSAGGSA [r2_314_TrROS] ?
[out] 0.0

[in] In plain terms: is recorded folding stability dG unfold at least 3 kcal/mol for SAGGSAGGSKKVEVEILLLLPESTTEEEAKALAEELAEKIKEATPADDVEVKVVILKVPKNALSAGGSAGGS [r12_522_TrMRF] ?
[out] 0.0

[in] In plain terms: is recorded folding stability dG unfold at least 3 kcal/mol for SAGMVKAKLKVIPVTVDGKPKLYVKVELEIPGGPKFELVFETGSPEKAKELLEKLGLKVKDEDIEIEESSAG [r5_233_TrMRF] ?
[out] 1.0

----------
folding stability dG unfold overview
test: folding stability dG unfold (combined trypsin and chymotrypsin); higher = more stable

For orientation, consider the following solved cases.
SFTVERNVYRIENPPKLVVNVIITAEDGTPVPPEVVEEAVRELEKAGFPVKKVSVTPLPDGSVLVTVEVDVS [r1_408_TrMRF] ... 2.52 kcal/mol
SAGGSAGGMNIQILKVDPDNGTITLAIPVDNWIVAISIKIRPDPNNPGMFKLDIDIHWFPADDISAGGSAGG [r6_372_TrROS] ... 4.28 kcal/mol
SAGMKITFPDGFKEIEVYEDPNYPYIEIPLPGGSIRYDLKDGPIEIEPPGDNRPIRFPIPPGDTITLPSAGG [r19_138_TrROS] ... < -1 kcal/mol

[in] I'd like to know its folding stability dG unfold. The sequence in question is SAGGSAGGSWITPEWIEEIARYLARELGIDDVKIEVERRPDGYVTVEIRNPANGRKVEITVPWSAGGSAGGS [r12_1000_TrROS]
[out] 3.16 kcal/mol

[in] I'd like to know its folding stability dG unfold. The sequence in question is SAGGSAGGSMKLPPELKGKKIRIRVRNKNGETVEAEATVLEDGTIEIKIEGLSEEEITEIEIESAGGSAGGS [r12_477_TrROS_Hall]
[out] 2.3 kcal/mol

[in] I'd like to know its folding stability dG unfold. The sequence in question is SAGMTEVAKEIADTLAEQFPPGYKIDDIKVQPLPDNMFRVPITIKRRDPNGKPRGPRQIEIWIPPEQFSAGG [r19_28_TrROS]
[out] 0.532 kcal/mol

[in] I'd like to know its folding stability dG unfold. The sequence in question is KKKIKKIEIEIKIPVKSIEEAKEEVEKLAKELKEKFPEIKKIKVEIIKYDEKKGYITVKITIEVNGKKIEFS [r1_52_TrROS_Hall]
[out] 1.52 kcal/mol

[in] I'd like to know its folding stability dG unfold. The sequence in question is SAGNIKIKEVEINDNTLTISYRMPGSGMWVKASIQADKGAIKIKSEYYPPKGKPIGEEEFTVPLDELKLSAG [r5_308_TrROS]
[out] 1.45 kcal/mol

[in] I'd like to know its folding stability dG unfold. The sequence in question is SAGGSAGGVTINFPDGVTIMVDPGTGKIYIMNPNGYIFKFTIERKPNEWKLKIEPIKPIPPDDFSAGGSAGG [r6_324_TrROS]
[out] 3.16 kcal/mol
